The values you see were collected from patent US7824866B2.

- TESTED ON: human GPR72 (Homo sapiens)
- Sequence (Q9NYM4 17-423): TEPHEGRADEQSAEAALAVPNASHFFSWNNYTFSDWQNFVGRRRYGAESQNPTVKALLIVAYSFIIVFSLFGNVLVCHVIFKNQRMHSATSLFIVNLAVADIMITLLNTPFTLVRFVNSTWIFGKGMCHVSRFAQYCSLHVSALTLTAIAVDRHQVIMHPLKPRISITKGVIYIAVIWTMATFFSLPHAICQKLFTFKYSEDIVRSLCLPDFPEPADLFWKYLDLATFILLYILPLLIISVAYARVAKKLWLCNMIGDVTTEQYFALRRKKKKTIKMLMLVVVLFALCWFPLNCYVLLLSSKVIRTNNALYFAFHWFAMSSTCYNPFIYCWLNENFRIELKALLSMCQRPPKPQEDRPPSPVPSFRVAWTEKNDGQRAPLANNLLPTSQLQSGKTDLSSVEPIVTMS
- RUN DESCRIPTION: Aequorin-based functional assay: intracellular calcium release (luminescence) in CHO-K1 cells stably expressing human GPR72, mitochondrial apoaequorin and Galpha16
- Assay type: cell-based
- Parameters: expressed in transfected cells
- TEST CONTEXT: Figure 8, SAR of arachidonic acid on human GPR72 activation; CHO-K1 cells, aequorin; read-out: GPR72 EC50
MEASURE: pEC50
Recall that pEC50 is obtained by taking minus log10 of the concentration measured in molar.

// worked examples, pEC50 included
compound="CCCCC/C=C\\C/C=C\\CCCCCCCCCC(=O)O [Eicosa-11Z,14Z-dienoic acid]" measure=pEC50 result=4.75
compound=CC/C=C\C/C=C\C/C=C\C/C=C\C/C=C\CCCCCC(=O)O measure=pEC50 result=5.03
compound=CC/C=C\C/C=C\C/C=C\C/C=C\C/C=C\C/C=C\CCC(=O)O measure=pEC50 result=5.70
compound="CCCCC/C=C\\C/C=C\\C/C=C\\CCCCCCC(=O)O [Eicosa-8Z,11Z,14Z-trienoic acid]" measure=pEC50 result=4.36

Query: Would you kindly share the measured pEC50 for CC1=C(/C=C/C(C)=C\C=C\C(C)=C\C(=O)O)C(C)(C)CCC1 [9-cis-Retinoic acid] ?
Result: 6.40

Query: Item: CCCCCCCC/C=C\C/C=C\C/C=C\CCCC(=O)O [Eicosa-5Z,8Z,11Z-trienoic acid]
Result: 5.20

Query: Item: CC/C=C\C/C=C\C/C=C\CCCCCCCCCCCC(=O)O [Docosa-13Z,16Z,19Z-trienoic acid]
Result: 4.60

Query: Item: "CCCCC/C=C\C/C=C\C/C=C\C/C=C\CCCC(=O)N[C@@H](C)C(=O)O"
Result: 5.54
